Target: T1, mouse IL-17A (mouse, UniProt Q62386 26-158, limits assumed)
T1 construct: In SPR it was injected in solution, and no biotinylation is mentioned there; also called mIL-17A; mIL17A
T1 sequence (looked up): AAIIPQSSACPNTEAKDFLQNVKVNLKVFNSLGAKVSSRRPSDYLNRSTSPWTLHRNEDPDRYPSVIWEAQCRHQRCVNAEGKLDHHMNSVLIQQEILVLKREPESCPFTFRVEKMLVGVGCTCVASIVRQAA
Test: SPR (ProteOn XPR-36), clone amine-coupled on chip, mIL-17A in solution, 1:1 Langmuir fit
In this section we review reported kon values for a set of binders.
Measured Property: kon

[[record]]
binder = "TP1KR9P62-E3 (designed binder, also called TCL14-His fusion protein) MLPAPKNLVVSRVTEDSARLSWTAPDAAFDSFGIEYFEDYWTGEAIVLTVPGSERSYDLTGLKPGTEYAVSIRGVKGGYPSAPLSAIFTT"
data_value = "113000 M⁻¹ s⁻¹"

[[record]]
binder = "TP1KR9P62-C6 (designed binder, also called TCL14-His fusion protein) MLPAPKNLVVSRVTEDSARLSWTAPDAAFDSFAIEYFEDWWSGEAIVLTVPGSERSCDLTGLKPGTEYSVTIRGVKGGYPSSPLSAIFTT"
data_value = "568000 M⁻¹ s⁻¹"

